# target.under.test: recombinant human DAO (diamine oxidase) (Homo sapiens, UniProt P19801)
# Construct: purchased R&D systems
# protocol.text: Activity evaluation on recombinant human DAO (Amplex Red/HRP-coupled assay, 1 mM putrescine substrate)
# Assay type: biochemical
# assay.context: 1 mM putrescine substrate, read-out: Inhibitory Activity (IC50, nM) DAO
Where a name gives a salt, the structure may show the parent alone.
Here the recorded IC50 is given for each entry.
measure.name: IC50 (nM)

>>> df
                                   compound  recorded_value
0  CCn1cc(-c2ccc3cc(Cn4cnn(CC(CN)=C(F)F)c4=O)sc3c2)cn1 [Example 204, Trifluoroacetate]           41200
1  CS(=O)(=O)n1cc(-c2ccc(Cn3cnn(CC(CN)=C(F)F)c3=O)s2)cn1 [Example 293, Trifluoroacetate]           25300
2  CCn1cc(-c2ccc(-c3cnc(-n4cnn(CC(CN)=C(F)F)c4=O)c(C)c3)cc2)cn1 [Example 290, Trifluoroacetate]            2380
3  Cc1cc(-c2ccc3ocnc3c2)cnc1-n1cnn(CC(CN)=C(F)F)c1=O [Example 229, Trifluoroacetate]           97000

###

# target.under.test: recombinant human DAO (diamine oxidase) (Homo sapiens, UniProt P19801)
# Construct: purchased R&D systems
# Sequence (P19801 20-751): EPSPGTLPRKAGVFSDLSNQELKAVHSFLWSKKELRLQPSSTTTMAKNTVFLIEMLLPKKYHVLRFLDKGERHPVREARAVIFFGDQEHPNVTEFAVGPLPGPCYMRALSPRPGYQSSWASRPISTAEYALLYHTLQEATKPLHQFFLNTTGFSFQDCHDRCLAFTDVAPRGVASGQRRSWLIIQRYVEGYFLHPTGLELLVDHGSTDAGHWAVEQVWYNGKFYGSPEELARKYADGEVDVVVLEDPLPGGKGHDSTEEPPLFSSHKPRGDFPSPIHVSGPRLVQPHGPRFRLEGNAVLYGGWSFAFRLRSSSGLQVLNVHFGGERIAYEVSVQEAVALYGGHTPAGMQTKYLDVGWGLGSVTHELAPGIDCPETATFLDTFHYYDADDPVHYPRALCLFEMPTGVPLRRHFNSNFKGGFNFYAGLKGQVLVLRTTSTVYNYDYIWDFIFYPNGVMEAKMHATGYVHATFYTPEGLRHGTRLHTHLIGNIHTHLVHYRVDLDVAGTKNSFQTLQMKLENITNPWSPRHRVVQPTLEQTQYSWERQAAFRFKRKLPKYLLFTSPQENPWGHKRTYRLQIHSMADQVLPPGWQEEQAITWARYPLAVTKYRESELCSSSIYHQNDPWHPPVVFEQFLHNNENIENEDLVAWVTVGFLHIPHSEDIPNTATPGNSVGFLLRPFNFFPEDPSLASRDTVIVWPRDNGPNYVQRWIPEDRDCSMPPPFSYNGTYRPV
# protocol.text: Activity evaluation on recombinant human DAO (Amplex Red/HRP-coupled assay, 1 mM putrescine substrate)
# Type: biochemical
# assay.context: 1 mM putrescine, read-out: Inhibitory Activity (IC50, nM) DAO
Where a name gives a salt, the structure may show the parent alone.
The following molecules are listed with their measured IC50 values.
measure.name: IC50 (nM)

In [3]: df
Out[3]:
                                    molecule  measure_name  comparison_operator  recorded_value
 0  Cc1cc(-n2cnn(CC(CN)=C(F)F)c2=O)cnc1-c1ccc2c(c1)OCO2 [Example 79, Trifluoroacetate]          IC50                    =             200
 1  NCC(Cn1ncn(Cc2ccc(-c3ccc4c(c3)NC(=O)CO4)s2)c1=O)=C(F)F [Example 141, Trifluoroacetate]          IC50                    =           16000
 2  NCC(Cn1ncn(-c2cnc(Br)cn2)c1=O)=C(F)F [Example 16, Trifluoroacetate]          IC50                    =            1100
 3  NCC(Cn1ncn(Cc2ccc(C#Cc3cnc4c(c3)OCCN4)s2)c1=O)=C(F)F [Example 167, Ditrifluoroacetate]          IC50                    >           10000
 4  CS(=O)(=O)c1ccc(-c2ccc(-n3cnn(CC(CN)=C(F)F)c3=O)cc2F)cc1 [Example 24, Trifluoroacetate]          IC50                    =             600
 5  CCn1cc(-c2cc(-n3cnn(CC(CN)=C(F)F)c3=O)ccn2)cn1 [Example 67, Trifluoroacetate]          IC50                    =             490
 6  Cn1cc(-c2ccc(Cn3cnn(CC(CN)=C(F)F)c3=O)s2)ccc1=O [Example 121, Trifluoroacetate]          IC50                    >           10000
 7  CN(C)c1ccc(-c2cccc(-n3cnn(CC(CN)=C(F)F)c3=O)n2)cn1 [Example 49, Trifluoroacetate]          IC50                    =             490
 8  NCC(Cn1ncn(Cc2ccc(-c3cc(F)c4[nH]c(=O)ccc4c3)s2)c1=O)=C(F)F [Example 137, Trifluoroacetate]          IC50                    >          100000
 9  Cc1cc(-c2cccc(-n3cnn(CC(CN)=C(F)F)c3=O)n2)cc2c1NC(=O)CC2 [Example 51, Trifluoroacetate]          IC50                    =             520
10  NCC(Cn1ncn(-c2ccc(-c3ccc(C(F)(F)F)nc3)cc2F)c1=O)=C(F)F [Example 33, Trifluoroacetate]          IC50                    =              17
11  CS(=O)(=O)c1ccc(-c2csc(Cn3cnn(CC(CN)=C(F)F)c3=O)c2)cc1 [Example 146, Trifluoroacetate]          IC50                    =            9200
12  CN1C(=O)CCc2cc(-c3ccc(Cn4cnn(CC(CN)=C(F)F)c4=O)s3)ccc21 [Example 138, Trifluoroacetate]          IC50                    =           13000
13  NCC(Cn1ncn(Cc2ccc(C#Cc3cnc4c(c3)NCCO4)s2)c1=O)=C(F)F [Example 166, Ditrifluoroacetate]          IC50                    >           10000

###

# target.under.test: recombinant human MAO-B (monoamine oxidase-B) (Homo sapiens, UniProt P27338)
# Construct: purchased Sigma-Aldrich
# Sequence (P27338 whole entry): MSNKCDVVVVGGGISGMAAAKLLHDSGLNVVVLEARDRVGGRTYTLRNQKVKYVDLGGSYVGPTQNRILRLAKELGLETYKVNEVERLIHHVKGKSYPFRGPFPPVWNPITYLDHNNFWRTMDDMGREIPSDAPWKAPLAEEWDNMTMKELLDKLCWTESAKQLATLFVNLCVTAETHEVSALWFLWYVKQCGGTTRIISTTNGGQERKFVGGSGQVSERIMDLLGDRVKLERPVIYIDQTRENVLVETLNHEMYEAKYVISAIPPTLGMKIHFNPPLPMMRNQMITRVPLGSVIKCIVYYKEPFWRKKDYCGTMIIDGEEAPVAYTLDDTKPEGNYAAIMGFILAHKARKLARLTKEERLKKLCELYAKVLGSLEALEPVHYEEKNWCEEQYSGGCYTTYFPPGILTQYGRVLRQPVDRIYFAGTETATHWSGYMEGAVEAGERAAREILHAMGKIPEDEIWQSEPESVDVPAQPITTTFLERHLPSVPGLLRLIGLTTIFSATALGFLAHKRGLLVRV
# protocol.text: Activity evaluation on recombinant human MAO-B (Amplex Red/HRP-coupled assay, 1 mM benzylamine substrate)
# Format: biochemical
# assay.context: 1 mM benzylamine, read-out: Inhibitory Activity (IC50, nM) MAO-B
Where a name gives a salt, the structure may show the parent alone.
// thresholds for IC50 classes: Low: < 700 nM; Mid: ≥ 700 nM and < 10000 nM; High: ≥ 10000 nM

                                    compound  label_class
 0  CN1C(=O)COc2cc(-c3ccc(Cn4cnn(CC(CN)=C(F)F)c4=O)s3)ccc21 [Example 144, Trifluoroacetate]         High
 1  CN(C)c1ccc(-c2ccc(-n3cnn(CC(CN)=C(F)F)c3=O)cc2F)cn1 [Example 27, Trifluoroacetate]          Low
 2  Cc1cc(-c2ccc(CCn3cnn(CC(CN)=C(F)F)c3=O)s2)cc2c1NC(=O)CC2 [Example 178, Trifluoroacetate]         High
 3  NCC(Cn1ncn(-c2ccnc(-c3ccc4c(c3)OCO4)c2)c1=O)=C(F)F [Example 64, Trifluoroacetate]          Low
 4  Cc1cc(-c2ccc3c(c2)OCO3)sc1Cn1cnn(CC(CN)=C(F)F)c1=O [Example 158, Trifluoroacetate]          Mid
 5  CCn1cc(-c2ccc(Cn3cnn(CC(CN)=C(F)F)c3=O)s2)cn1 [Example 119, Trifluoroacetate]         High
 6  CC(=O)Nc1nc2ccc(-c3ccc(Cn4cnn(CC(CN)=C(F)F)c4=O)s3)cc2s1 [Example 131, trifluoroacetate]         High
 7  CNC(=O)c1ccc(-c2ccc(Cn3cnn(CC(CN)=C(F)F)c3=O)s2)cc1 [Example 104, trifluoroacetate]         High
 8  CCn1cc(-c2ccc(-n3cnn(CC(CN)=C(F)F)c3=O)cc2F)cn1 [Example 30, Trifluoroacetate]          Low
 9  NCC(Cn1ncn(Cc2ccc(-c3ccc(N4CCNCC4)cc3)s2)c1=O)=C(F)F [Example 106, Ditrifluoroacetate]         High
10  NCC(Cn1ncn(Cc2cc(Br)cs2)c1=O)=C(F)F [Example 98, Trifluoroacetate]         High
11  Cc1cc(-c2cc(-n3cnn(CC(CN)=C(F)F)c3=O)ccn2)cc2c1NC(=O)CC2 [Example 65, Trifluoroacetate]         High
12  Cc1cc(-c2cc(C)c3c(c2)CCC(=O)N3)cnc1-n1cnn(CC(CN)=C(F)F)c1=O [Example 73, Trifluoroacetate]          Mid

Data origin: patent US11168073B2
